assay: Prodrug-induced generation of ROS in cell free settings (DCFH/H2O2); settings: relative acceleration of the rate of DCFH fluorescence increase with H2O2, pH 7.4; FeSO4 = 1.0
Reported ROS Release Efficacy values follow for various compounds
# answer = number (no unit)

See these solved cases before continuing.
# Smiles Str, ROS Release Efficacy
rows = [
    ("CC1(C)OB(c2ccc(COC(=O)N(Cc3cn(Cc4ccccc4)nn3)[c-]3cccc3)cc2)OC1(C)C.[Fe+2].c1cc[cH-]c1", 0.74),
    ("CC1(C)OB(c2ccc(COC(=O)N(Cc3cn(CCc4ccccc4)nn3)[c-]3cccc3)cc2)OC1(C)C.[Fe+2].c1cc[cH-]c1", 0.76),
]

Answer with reported ROS Release Efficacy of CC1(C)OB(c2ccc(COC(=O)N(Cc3cn(Cc4ccc(Cn5cc(CCc6ccccc6)nn5)cc4)nn3)[c-]3cccc3)cc2)OC1(C)C.[Fe+2].c1cc[cH-]c1
0.37

---

experiment: Prodrug-induced generation of ROS in cell free settings (DCFH/H2O2); conditions: relative acceleration of the rate of DCFH fluorescence increase with H2O2, pH 7.4; FeSO4 = 1.0
Items are presented alongside their recorded ROS Release Efficacy.

For the molecule CCOC(=O)CCCCCn1cc(CN(C(=O)OCc2ccc(B3OC(C)(C)C(C)(C)O3)cc2)[c-]2cccc2)nn1.[Fe+2].c1cc[cH-]c1 [compound 1] , give its measured ROS Release Efficacy value.
0.99 ± 0.16

State its ROS Release Efficacy for this molecule: CC1(C)OB(c2ccc(COC(=O)N(Cc3cn(Cc4ccc(Cn5cc(Cc6ccccc6)nn5)cc4)nn3)[c-]3cccc3)cc2)OC1(C)C.[Fe+2].c1cc[cH-]c1 [2c]
0.35 ± 0.17

Let me know recorded ROS Release Efficacy for CN(C)C(=O)c1ccc(COC(=O)N(Cc2cn(Cc3ccc(Cn4cc(Cc5ccccc5)nn4)cc3)nn2)[c-]2cccc2)cc1.[Fe+2].c1cc[cH-]c1 [2c_c] , thanks.
0.050 ± 0.003

---

tested on: BL-2 cells; assay: Cell viability, MTT assay, BL-2; type: cell-based, human; details: BL-2, 48 h incubation
Parameter: IC50. Scope: all listed entries.
// note: answer is a bare numeric in µM

# Compound, Measured Property, Reading
measured = [
    ("CC1(C)OB(c2ccc(COC(=O)N(Cc3cccc(CN4CCCCC4)c3)[c-]3cccc3)cc2)OC1(C)C.[Fe+2].c1cc[cH-]c1 [5b]", "IC50", 5),
    ("CC1(C)OB(c2ccc(COC(=O)N(Cc3cn(Cc4ccc(Cn5cc(Cc6ccccc6)nn5)cc4)nn3)[c-]3cccc3)cc2)OC1(C)C.[Fe+2].c1cc[cH-]c1 [2c]", "IC50", 40.1),
    ("CCOC(=O)CCCCCn1cc(CN(C(=O)OCc2ccc(B3OC(C)(C)C(C)(C)O3)cc2)[c-]2cccc2)nn1.[Fe+2].c1cc[cH-]c1 [compound 1]", "IC50", 35),
]

Please supply the value of reported IC50 for the item C1=CCC=C1.CC1(C)OB(c2ccc(COC(=O)N(Cc3cn(CCC[P+](c4ccccc4)(c4ccccc4)c4ccccc4)nn3)C3C=CC=C3)cc2)OC1(C)C.[Fe+2] [5c, reference compound]
5

---

system: A2780 cells; test: Mitochondrial ROS (MitoSOX, flow cytometry), A2780; format: cell-based, human
Measured Property: mitochondrial ROS (mROS) vs non-treated cells

# Compound, Reading
data = [
    ("CCOC(=O)CCCCCn1cc(CN(C(=O)OCc2ccc(B3OC(C)(C)C(C)(C)O3)cc2)[c-]2cccc2)nn1.[Fe+2].c1cc[cH-]c1 [compound 1]", "substantially weaker"),
    ("CC1(C)OB(c2ccc(COC(=O)N[c-]3cccc3)cc2)OC1(C)C.[Fe+2].c1cc[cH-]c1 [5a]", "substantially weaker"),
]

---

Solubility values, listed per item
test: Solubility in RPMI 1640 medium, precipitation seen by bright field optical microscopy; conditions: 48 h incubation in RPMI 1640, FBS 5%, DMSO 1%; first signs of precipitation
Give a bare numeral; the unit µM is implied.

# Smiles Str, Measured Property, Units Label, Reading
data = [
    ("CN(C)C(=O)c1ccc(COC(=O)N(Cc2cn(Cc3ccc(Cn4cc(Cc5ccccc5)nn4)cc3)nn2)[c-]2cccc2)cc1.[Fe+2].c1cc[cH-]c1", "Solubility", "µM", 55),
    ("CC1(C)OB(c2ccc(COC(=O)N(Cc3cn(CCc4ccccc4)nn3)[c-]3cccc3)cc2)OC1(C)C.[Fe+2].c1cc[cH-]c1", "Solubility", "µM", 100),
    ("CC1(C)OB(c2ccc(COC(=O)N(Cc3cn(Cc4ccc(Cn5cc(Cc6ccccc6)nn5)cc4)nn3)[c-]3cccc3)cc2)OC1(C)C.[Fe+2].c1cc[cH-]c1", "Solubility", "µM", 30),
    ("CC1(C)OB(c2ccc(COC(=O)N(Cc3cn(Cc4ccccc4)nn3)[c-]3cccc3)cc2)OC1(C)C.[Fe+2].c1cc[cH-]c1", "Solubility", "µM", 100),
]

Okay, next one:
Find the measured Solubility of CC1(C)OB(c2ccc(COC(=O)N(Cc3cn(Cc4ccc(Cn5cc(CCc6ccccc6)nn5)cc4)nn3)[c-]3cccc3)cc2)OC1(C)C.[Fe+2].c1cc[cH-]c1 and report it.
30

---

Recorded logP (Hydrolyzed Prodrug) by entry
assay: n-octanol/water partition coefficient (logP) by RP-TLC; assay type: physicochemical; conditions: n-octanol/water partition coefficient of the hydrolyzed boronic acid (_BA) form of the prodrug named
Hey, just send me the number, nothing else.

Look over these answered cases.
# Molecule, Measured Property, Reading
records = [
    ("CCOC(=O)CCCCCn1cc(CN(C(=O)OCc2ccc(B(O)O)cc2)[c-]2cccc2)nn1.[Fe+2].c1cc[cH-]c1 [1_BA, reference compound]", "logP (Hydrolyzed Prodrug)", 2.83),
    ("CC1(C)OB(c2ccc(COC(=O)N(Cc3cn(CCc4ccccc4)nn3)[c-]3cccc3)cc2)OC1(C)C.[Fe+2].c1cc[cH-]c1", "logP (Hydrolyzed Prodrug)", 3.10),
]

Input CC1(C)OB(c2ccc(COC(=O)N(Cc3cn(Cc4ccc(Cn5cc(Cc6ccccc6)nn5)cc4)nn3)[c-]3cccc3)cc2)OC1(C)C.[Fe+2].c1cc[cH-]c1 , output reported logP (Hydrolyzed Prodrug).
3.23

---

Recorded logP (Hydrolyzed Prodrug), one value per entry.
assay: n-octanol/water partition coefficient (logP) by RP-TLC; type: physicochemical; settings: n-octanol/water partition coefficient of the hydrolyzed boronic acid (_BA) form of the prodrug named
Returns: the value as a bare number; no unit string appended.

# Smiles Str, Reading
rows = [
    ("O=C(OCc1ccc(B(O)O)cc1)N(Cc1cn(Cc2ccc(Cn3cc(Cc4ccccc4)nn3)cc2)nn1)[c-]1cccc1.[Fe+2].c1cc[cH-]c1", 3.23),
    ("CC1(C)OB(c2ccc(COC(=O)N(Cc3cn(Cc4ccccc4)nn3)[c-]3cccc3)cc2)OC1(C)C.[Fe+2].c1cc[cH-]c1", 2.92),
]

Query compound follows.
Provide logP (Hydrolyzed Prodrug) value for the following compound: CC1(C)OB(c2ccc(COC(=O)N(Cc3cn(Cc4ccc(Cn5cc(CCc6ccccc6)nn5)cc4)nn3)[c-]3cccc3)cc2)OC1(C)C.[Fe+2].c1cc[cH-]c1
3.42

---

test system: mononuclear cells (MNCs) from healthy donors; assay: Viability of primary mononuclear cells (CellTiter Glo); format: cell-based, human; details: primary MNC from six healthy donors, 48 h
Measured Property: IC50 (µM)
Report the figure in µM without appending any unit label.

Supply IC50 value. Item: CC1(C)OB(c2ccc(COC(=O)N(Cc3cn(Cc4ccc(Cn5cc(Cc6ccccc6)nn5)cc4)nn3)[c-]3cccc3)cc2)OC1(C)C.[Fe+2].c1cc[cH-]c1
12

---

Listed here: items and their measured pEC50.
system: FaDu cells; assay: Cytotoxicity MTT assay, FaDu; type: cell-based, human; conditions: 48h, read-out: 50% cell survival (EC50)
pEC50: −log10 of the molar value.

# Compound, Reading
rows = [
    ("CC1(C)OB(c2ccc(COC(=O)N(Cc3cn(Cc4ccc(Cn5cc(Cc6ccccc6)nn5)cc4)nn3)[c-]3cccc3)cc2)OC1(C)C.[Fe+2].c1cc[cH-]c1 [2c]", "< 4.30"),
    ("[Fe+2].c1cc[cH-]c1.c1cc[cH-]c1 [compound 6, ferrocene]", "< 4.30"),
]

Please look at the following compound next.
State its pEC50: CC1(C)OB(c2ccc(COC(=O)N(Cc3cccc(CN4CCCCC4)c3)[c-]3cccc3)cc2)OC1(C)C.[Fe+2].c1cc[cH-]c1 [5b]
4.70

---

tested on: SAS cells; experiment: Cytotoxicity MTT assay, SAS; type: cell-based, human; conditions: 48h, read-out: 50% cell survival (EC50)
Readings of EC50 for the listed compounds

# Smiles Str, Reading
records = [
    ("CC1(C)OB(c2ccc(COC(=O)N(Cc3cn(Cc4ccc(Cn5cc(Cc6ccccc6)nn5)cc4)nn3)[c-]3cccc3)cc2)OC1(C)C.[Fe+2].c1cc[cH-]c1", "> 50 µM"),
    ("[Fe+2].c1cc[cH-]c1.c1cc[cH-]c1", "> 50 µM"),
]

We now examine a further compound.
Please indicate EC50 recorded for CC1(C)OB(c2ccc(COC(=O)N(Cc3cccc(CN4CCCCC4)c3)[c-]3cccc3)cc2)OC1(C)C.[Fe+2].c1cc[cH-]c1
5.8 µM
